assay procedure: activity coefficient (dimensionless); of the first substance listed, at infinite dilution; xn = mol fraction of the nth substance listed
assay setup: 368.15 K; 101 kPa; Liquid; Chromatography; x1 = 0
Consider the following compounds; for each one, report its activity coefficient.
Number, no unit, nothing else.

Which measured activity coefficient value corresponds to O [water] + COCC[N+]1(C)CCCCC1.O=S(=O)([N-]S(=O)(=O)C(F)(F)F)C(F)(F)F ?
1.87

Which measured activity coefficient value corresponds to CC(C)CC(C)(C)C [2,2,4-trimethylpentane] + COCC[N+]1(C)CCCCC1.O=S(=O)([N-]S(=O)(=O)C(F)(F)F)C(F)(F)F ?
17.6

Which measured activity coefficient value corresponds to CCCCCCCCC [nonane] + COCC[N+]1(C)CCCCC1.O=S(=O)([N-]S(=O)(=O)C(F)(F)F)C(F)(F)F ?
32.4

Which measured activity coefficient value corresponds to CCC(C)(C)C [2,2-dimethylbutane] + COCC[N+]1(C)CCCCC1.O=S(=O)([N-]S(=O)(=O)C(F)(F)F)C(F)(F)F ?
10.9

----------
assay procedure: activity coefficient (dimensionless); of the first substance listed, at infinite dilution; xn = mol fraction of the nth substance listed
assay setup: 338.15 K; 101 kPa; Liquid; Chromatography; x1 = 0
readout label: activity coefficient
Number, no unit, nothing else.

Which measured activity coefficient value corresponds to C=CCCC [1-pentene] + COCC[N+]1(C)CCCCC1.O=S(=O)([N-]S(=O)(=O)C(F)(F)F)C(F)(F)F ?
5.73

Which measured activity coefficient value corresponds to CC(C)OC(C)C [diisopropyl ether] + COCC[N+]1(C)CCCCC1.O=S(=O)([N-]S(=O)(=O)C(F)(F)F)C(F)(F)F ?
5.94

Which measured activity coefficient value corresponds to CCCC(C)=O [pentan-2-one] + COCC[N+]1(C)CCCCC1.O=S(=O)([N-]S(=O)(=O)C(F)(F)F)C(F)(F)F ?
0.813

Which measured activity coefficient value corresponds to CCCC(=O)OC [methyl butanoate] + COCC[N+]1(C)CCCCC1.O=S(=O)([N-]S(=O)(=O)C(F)(F)F)C(F)(F)F ?
1.24

----------
assay procedure: activity coefficient (dimensionless); of the first substance listed, at infinite dilution; xn = mol fraction of the nth substance listed
assay setup: 358.15 K; 101 kPa; Liquid; Chromatography; x1 = 0
readout label: activity coefficient
Number, no unit, nothing else.

Which measured activity coefficient value corresponds to CCCCCCCCCC [decane] + COCC[N+]1(C)CCCCC1.O=S(=O)([N-]S(=O)(=O)C(F)(F)F)C(F)(F)F ?
48.8

Which measured activity coefficient value corresponds to Cc1ccccc1C [1,2-dimethylbenzene] + COCC[N+]1(C)CCCCC1.O=S(=O)([N-]S(=O)(=O)C(F)(F)F)C(F)(F)F ?
1.72

Which measured activity coefficient value corresponds to CC1CCCCC1 [methylcyclohexane] + COCC[N+]1(C)CCCCC1.O=S(=O)([N-]S(=O)(=O)C(F)(F)F)C(F)(F)F ?
10.6

Which measured activity coefficient value corresponds to CCCOCCC [dipropyl ether] + COCC[N+]1(C)CCCCC1.O=S(=O)([N-]S(=O)(=O)C(F)(F)F)C(F)(F)F ?
5.86

Which measured activity coefficient value corresponds to C1CCOC1 [tetrahydrofuran] + COCC[N+]1(C)CCCCC1.O=S(=O)([N-]S(=O)(=O)C(F)(F)F)C(F)(F)F ?
0.809

Which measured activity coefficient value corresponds to CCCCCC [hexane] + COCC[N+]1(C)CCCCC1.O=S(=O)([N-]S(=O)(=O)C(F)(F)F)C(F)(F)F ?
13.5

Which measured activity coefficient value corresponds to O [water] + COCC[N+]1(C)CCCCC1.O=S(=O)([N-]S(=O)(=O)C(F)(F)F)C(F)(F)F ?
2.07

Which measured activity coefficient value corresponds to CC(C)=O [acetone] + COCC[N+]1(C)CCCCC1.O=S(=O)([N-]S(=O)(=O)C(F)(F)F)C(F)(F)F ?
0.498

Which measured activity coefficient value corresponds to COC(C)=O [methyl ethanoate] + COCC[N+]1(C)CCCCC1.O=S(=O)([N-]S(=O)(=O)C(F)(F)F)C(F)(F)F ?
0.751

Which measured activity coefficient value corresponds to C=C(C)c1ccccc1 [(1-methylethenyl)benzene] + COCC[N+]1(C)CCCCC1.O=S(=O)([N-]S(=O)(=O)C(F)(F)F)C(F)(F)F ?
1.74

Which measured activity coefficient value corresponds to C#CCCCCCC [1-octyne] + COCC[N+]1(C)CCCCC1.O=S(=O)([N-]S(=O)(=O)C(F)(F)F)C(F)(F)F ?
5.7

Which measured activity coefficient value corresponds to CCCCCCCC [octane] + COCC[N+]1(C)CCCCC1.O=S(=O)([N-]S(=O)(=O)C(F)(F)F)C(F)(F)F ?
25.6

Which measured activity coefficient value corresponds to CCOCC [diethyl ether] + COCC[N+]1(C)CCCCC1.O=S(=O)([N-]S(=O)(=O)C(F)(F)F)C(F)(F)F ?
2.57

Which measured activity coefficient value corresponds to C1CCCCC1 [cyclohexane] + COCC[N+]1(C)CCCCC1.O=S(=O)([N-]S(=O)(=O)C(F)(F)F)C(F)(F)F ?
7.81

Which measured activity coefficient value corresponds to CCOC(C)=O [ethyl acetate] + COCC[N+]1(C)CCCCC1.O=S(=O)([N-]S(=O)(=O)C(F)(F)F)C(F)(F)F ?
0.975

Which measured activity coefficient value corresponds to CCCC=O [butanal] + COCC[N+]1(C)CCCCC1.O=S(=O)([N-]S(=O)(=O)C(F)(F)F)C(F)(F)F ?
0.828

Which measured activity coefficient value corresponds to CCCCC [pentane] + COCC[N+]1(C)CCCCC1.O=S(=O)([N-]S(=O)(=O)C(F)(F)F)C(F)(F)F ?
9.86

Which measured activity coefficient value corresponds to CC(C)(C)O [2-methylpropan-2-ol] + COCC[N+]1(C)CCCCC1.O=S(=O)([N-]S(=O)(=O)C(F)(F)F)C(F)(F)F ?
1.42

Which measured activity coefficient value corresponds to CCC(C)CC [3-methylpentane] + COCC[N+]1(C)CCCCC1.O=S(=O)([N-]S(=O)(=O)C(F)(F)F)C(F)(F)F ?
11.9

Which measured activity coefficient value corresponds to CC(C)CC(C)(C)C [2,2,4-trimethylpentane] + COCC[N+]1(C)CCCCC1.O=S(=O)([N-]S(=O)(=O)C(F)(F)F)C(F)(F)F ?
18.5

Which measured activity coefficient value corresponds to C#CCCCC [1-hexyne] + COCC[N+]1(C)CCCCC1.O=S(=O)([N-]S(=O)(=O)C(F)(F)F)C(F)(F)F ?
3.02

Which measured activity coefficient value corresponds to CC(C)O [propan-2-ol] + COCC[N+]1(C)CCCCC1.O=S(=O)([N-]S(=O)(=O)C(F)(F)F)C(F)(F)F ?
1.37

Which measured activity coefficient value corresponds to C1CCCCCCC1 [cyclooctane] + COCC[N+]1(C)CCCCC1.O=S(=O)([N-]S(=O)(=O)C(F)(F)F)C(F)(F)F ?
13.2

Which measured activity coefficient value corresponds to CCC(C)O (stereo not drawn) [butan-2-ol] + COCC[N+]1(C)CCCCC1.O=S(=O)([N-]S(=O)(=O)C(F)(F)F)C(F)(F)F ?
1.62

Which measured activity coefficient value corresponds to C=CCCCC [hex-1-ene] + COCC[N+]1(C)CCCCC1.O=S(=O)([N-]S(=O)(=O)C(F)(F)F)C(F)(F)F ?
7.45

Which measured activity coefficient value corresponds to Cc1ccccc1 [toluene] + COCC[N+]1(C)CCCCC1.O=S(=O)([N-]S(=O)(=O)C(F)(F)F)C(F)(F)F ?
1.34

Which measured activity coefficient value corresponds to C=CCCCCCCCC [1-decene] + COCC[N+]1(C)CCCCC1.O=S(=O)([N-]S(=O)(=O)C(F)(F)F)C(F)(F)F ?
27.4

Which measured activity coefficient value corresponds to COC(C)(C)C [2-methoxy-2-methylpropane] + COCC[N+]1(C)CCCCC1.O=S(=O)([N-]S(=O)(=O)C(F)(F)F)C(F)(F)F ?
2.69

----------
assay procedure: activity coefficient (dimensionless); of the first substance listed, at infinite dilution; xn = mol fraction of the nth substance listed
assay setup: 368.15 K; 101 kPa; Liquid; Chromatography; x1 = 0
Consider the following compounds; for each one, report its activity coefficient.
Number, no unit, nothing else.

Which measured activity coefficient value corresponds to C1CCCCC1 [cyclohexane] + COCC[N+]1(C)CCCCC1.O=S(=O)([N-]S(=O)(=O)C(F)(F)F)C(F)(F)F ?
7.48

Which measured activity coefficient value corresponds to C1=CCCCC1 [cyclohexene] + COCC[N+]1(C)CCCCC1.O=S(=O)([N-]S(=O)(=O)C(F)(F)F)C(F)(F)F ?
4.53

Which measured activity coefficient value corresponds to CCOC(C)=O [ethyl acetate] + COCC[N+]1(C)CCCCC1.O=S(=O)([N-]S(=O)(=O)C(F)(F)F)C(F)(F)F ?
0.989

Which measured activity coefficient value corresponds to CCC[N+](=O)[O-] [1-nitropropane] + COCC[N+]1(C)CCCCC1.O=S(=O)([N-]S(=O)(=O)C(F)(F)F)C(F)(F)F ?
0.728

Which measured activity coefficient value corresponds to C#CCCCC [1-hexyne] + COCC[N+]1(C)CCCCC1.O=S(=O)([N-]S(=O)(=O)C(F)(F)F)C(F)(F)F ?
3.03

Which measured activity coefficient value corresponds to CCCO [propan-1-ol] + COCC[N+]1(C)CCCCC1.O=S(=O)([N-]S(=O)(=O)C(F)(F)F)C(F)(F)F ?
1.4

Which measured activity coefficient value corresponds to CCCCCCC [heptane] + COCC[N+]1(C)CCCCC1.O=S(=O)([N-]S(=O)(=O)C(F)(F)F)C(F)(F)F ?
17.5
